# Tested on: SEM cells
# test_description: cell viability relative to DMSO control; higher = less cytotoxic
# settings: HPLM + 10% dialyzed FBS; 48 h; 15.4 µM
metric: cell viability (%)
Numbers only, in %.

Below, 2 molecules whose answers are already recorded.
| molecule | result_value |
| --- | --- |
| ClC/1=C(NCCN2CCOCC2)/C(=O)C3=C(C=CC=N3)C1=O | 35.8 |
| CCCNC(=O)Nc1ccc(Oc2ncnc3cc(OC)c(OC)cc23)cc1Cl | 80.4 |

Count: 6. Required value per item: cell viability.
1. Nc1ccc([S+](=O)([O-])Nc2ccnn2-c2ccccc2)cc1
2. CCCCOCCOc1nc(-c2ccc(C(=O)O)c(F)c2)sc1C
3. C[C@]12CC[C@H]3[C@@H](CCC4=CC(=O)CC[C@@H]43)[C@@H]1CC[C@@H]2OC(=O)CCc1ccccc1
4. Cc1ccccc1C(=O)Nc1ccc(C(=O)N2CCCC(O)c3cc(Cl)ccc32)c(C)c1 (centres undefined)
5. COC1=C(OCCCN2CCOCC2)C=C3N=CC=C(OC4=CC=C(C=C4F)\C5=C\N=C(\NC6=CC=C(F)C=C6)N(C)C5=O)C3=C1
6. Oc1nc(-c2ccc(C(F)(F)F)cc2)nc2c1CSCC2

1. 93.8
2. 109
3. 91.4
4. 127
5. 40.7
6. 84.3

Value of cell viability reported for the molecule COc1ccc2c(c1)CN(C)CC2c1ccc(Cl)c(Cl)c1 (centres undefined) is 117
